Where do these numbers come from? They come from ChEMBL document CHEMBL1240464.

// MIC lookup, one value per entry
- Test system: Staphylococcus aureus
- measurement-notes: Antibacterial activity against methicillin-resistant Staphylococcus aureus ATCC 43300 after 8 to 12 hrs by colorimetric microdilution broth technique
- Format: functional
quantity-kind: MIC (µg/mL)

molecular-string | tested-system | result-number
CCOc1ccc(/C=C/c2cccc[n+]2C)cc1.O=S(=O)([O-])c1ccc(Cl)cc1 | Staphylococcus aureus | 75
CN(C)c1ccc(/C=C/c2ccc3ccccc3[n+]2C)cc1.O=S(=O)([O-])c1ccc(Cl)cc1 | Staphylococcus aureus | 2.34
CN(C)c1ccc(/C=C/c2cccc[n+]2C)cc1.Cc1ccc(S(=O)(=O)[O-])cc1 | Staphylococcus aureus | 37.5
CCOc1ccc(/C=C/c2ccc3ccccc3[n+]2C)cc1.[I-] | Staphylococcus aureus | 2.34
CCOc1ccc(/C=C/c2ccc3ccccc3[n+]2C)cc1.O=S(=O)([O-])c1ccc(Cl)cc1 | Staphylococcus aureus | 2.34
CCOc1ccc(/C=C/c2cccc[n+]2C)cc1.Cc1ccc(S(=O)(=O)[O-])cc1 | Staphylococcus aureus | 37.5
CN(C)c1ccc(/C=C/c2ccc3ccccc3[n+]2C)cc1.Cc1ccc(S(=O)(=O)[O-])cc1 | Staphylococcus aureus | 2.34
CN(C)c1ccc(C=Cc2cccc[n+]2C)cc1.[I-] | Staphylococcus aureus | 37.5

###

- System: Staphylococcus aureus
- measurement-notes: Antibacterial activity against methicillin-resistant Staphylococcus aureus ATCC 43300 after 8 to 12 hrs by colorimetric microdilution broth technique
- Format: functional
# MIC listing for each entry below

molecular-string | MIC, µg/mL
CN(C)c1ccc(/C=C/c2cccc[n+]2C)cc1.O=S(=O)([O-])c1ccc(Br)cc1 | 75
CCOc1ccc(/C=C/c2cccc[n+]2C)cc1.Nc1ccc(S(=O)(=O)[O-])cc1 | 75
CN(C)c1ccc(/C=C/c2ccc3ccccc3[n+]2C)cc1.Nc1ccc(S(=O)(=O)[O-])cc1 | 2.34
CCOc1ccc(/C=C/c2cccc[n+]2C)cc1.[I-] | 37.5
CCOc1ccc(/C=C/c2ccc3ccccc3[n+]2C)cc1.Nc1ccc(S(=O)(=O)[O-])cc1 | 4.68
CN(C)c1ccc(/C=C/c2ccc3ccccc3[n+]2C)cc1.[I-] | 9.37
CCOc1ccc(/C=C/c2ccc3ccccc3[n+]2C)cc1.Cc1ccc(S(=O)(=O)[O-])cc1 | 2.34
CN(C)c1ccc(/C=C/c2ccc3ccccc3[n+]2C)cc1.O=S(=O)([O-])c1ccc(Br)cc1 | 2.34
CN(C)c1ccc(/C=C/c2cccc[n+]2C)cc1.COc1ccc(S(=O)(=O)[O-])cc1 | 75

###

- Test system: Shigella sonnei
- measurement-notes: Antibacterial activity against Shigella sonnei after 8 to 12 hrs by colorimetric microdilution broth technique
- Assay type: functional
quantity-kind: MIC (µg/mL)

molecular-string | tested-system | result-number
CCOc1ccc(/C=C/c2ccc3ccccc3[n+]2C)cc1.Nc1ccc(S(=O)(=O)[O-])cc1 | Shigella sonnei | 75
CN(C)c1ccc(C=Cc2cccc[n+]2C)cc1.[I-] | Shigella sonnei | 300
CN[C@H](CC(C)C)C(=O)N[C@H]1C(=O)N[C@@H](CC(N)=O)C(=O)N[C@H]2C(=O)N[C@H]3C(=O)N[C@H](C(=O)N[C@H](C(=O)O)c4cc(O)cc(O)c4-c4cc3ccc4O)[C@H](O)c3ccc(c(Cl)c3)Oc3cc2cc(c3O[C@@H]2O[C@H](CO)[C@@H](O)[C@H](O)[C@H]2O[C@H]2C[C@](C)(N)[C@H](O)[C@H](C)O2)Oc2ccc(cc2Cl)[C@H]1O | Shigella sonnei | 2.34
CCOc1ccc(/C=C/c2ccc3ccccc3[n+]2C)cc1.[I-] | Shigella sonnei | 150
CCOc1ccc(/C=C/c2cccc[n+]2C)cc1.[I-] | Shigella sonnei | 300
